// cross-study collection: IC50 for Urokinase-type plasminogen activator (Homo sapiens, UniProt P00749)
Recorded IC50 determines the group label, using low (below 7 µM), medium (7 µM to below 30 µM), high (30 µM or more)

CN(C)c1ccc(C(=O)O)c(Oc2nc(Oc3cccc(-c4cccc(CN)c4)c3)c(F)c(N3CCNCC3)c2F)c1 | low
CN(C)c1ccc(C(=O)O)c(Oc2nc(Oc3cccc(-c4cccc(CN)c4)c3)c(F)cc2F)c1 | low
CCOC(=O)CCNc1nc(N)c(C(=O)NC(=N)N)nc1Cl | medium
N=C(N)NC(=O)c1nc(Cl)c(NCP(=O)(O)O)nc1N | high
N=C(N)NC(=O)c1c[nH]cn1 | high

Enquiry: Could you place `Cn1c(CN2C(=O)CN(c3ccc(F)cc3)C2=O)cc2cnc(C(=O)N[C@H](C#N)CCCCN)nc21` in its proper category? Many thanks.
Return: high

Enquiry: Could you place `N=C(N)NC(=O)c1ncc(NCc2ccccc2)nc1N` in its proper category? Many thanks.
Return: high

Enquiry: Could you place `N=C(N)Nc1ccc(CNc2cnc3ccccn23)cc1` in its proper category? Many thanks.
Return: medium

Enquiry: Could you place `CC[C@@H](Oc1nc(Oc2cccc(-c3cccc(CN)c3)c2)c(F)cc1F)C(=O)O` in its proper category? Many thanks.
Return: low

Enquiry: Could you place `C[C@H](c1nc2ccc(C(=O)N[C@H](C#N)CCCCN)cc2n1C)N1C(=O)CN(c2ccc(F)cc2)C1=O` in its proper category? Many thanks.
Return: high

Enquiry: Could you place `N=C(N)NC(=O)c1nc(Cl)c(NCCS(=O)(=O)Cc2ccccc2)nc1N` in its proper category? Many thanks.
Return: medium

Enquiry: Could you place `CC(C)(C)C(=O)Oc1cn(-c2ccccc2)c(CSc2nc3cc(C(=O)O)ccc3o2)cc1=O` in its proper category? Many thanks.
Return: high

Enquiry: Could you place `Nc1nc(-c2ccccn2)nn1C(=O)c1ccccc1` in its proper category? Many thanks.
Return: medium

Enquiry: Could you place `CC(C)(C)C(=O)Oc1coc(CSc2nc3ccccc3s2)cc1=O` in its proper category? Many thanks.
Return: high

Enquiry: Could you place `Cc1ccc(S(=O)(=O)NCCNc2nc(N)c(C(=O)NC(=N)N)nc2Cl)cc1` in its proper category? Many thanks.
Return: high

Enquiry: Could you place `C[C@H](c1nc2ccc(C(=O)N[C@H](C#N)CCCCN)cc2n1C)N1C(=O)CN(c2ccc(Oc3ccncc3)cc2)C1=O` in its proper category? Many thanks.
Return: high

Enquiry: Could you place `CC(C)(C)C(=O)Oc1coc(CSc2nc3cc(C(=O)O)ccc3o2)cc1=O` in its proper category? Many thanks.
Return: high

Enquiry: Could you place `CCOC(=O)c1nn(C(=O)c2ccsc2)c2ccc([N+](=O)[O-])cc12` in its proper category? Many thanks.
Return: medium

Enquiry: Could you place `N=C(N)Nc1ccc(CNc2c(-c3cccnc3)nc3ccc(F)cn23)cc1` in its proper category? Many thanks.
Return: high

Enquiry: Could you place `Cc1ccc(C(=O)O)c(Oc2nc(Oc3cc(N)cc(-c4cccc(CN)c4)c3)c(F)cc2F)c1` in its proper category? Many thanks.
Return: low

Enquiry: Could you place `CCCCCCCCNC(=O)[C@H](Cc1ccc(OCc2ccc(C(=O)O)cc2)cc1)NC(=O)[C@H]1CC[C@H](CN)CC1` in its proper category? Many thanks.
Return: high

Enquiry: Could you place `N=C(N)Nc1ccc(CNc2c(CN)nc3ccccn23)cc1` in its proper category? Many thanks.
Return: medium

Enquiry: Could you place `COc1cc(Oc2nc(O[C@@H](C(=O)O)C(C)(C)C)c(F)cc2F)cc(-c2cccc(CN)c2)c1` in its proper category? Many thanks.
Return: low

Enquiry: Could you place `C[C@H](c1nc2ccc(C(=O)N[C@H](C#N)CCCCN)cc2n1C)N1C(=O)CN(c2ccc(Oc3ccccc3)cc2)C1=O` in its proper category? Many thanks.
Return: high

Enquiry: Could you place `NCCOc1ccc(Nc2cnc3ccccn23)cc1` in its proper category? Many thanks.
Return: high
